experimental_protocol: Dog liver, bile, plasma distribution
Type: in vivo
conditions_used: Beagle, dog, systemic plasma, po, 100 mg/kg, Dog 1; 4 hours after single daily 100 mg/kg oral doses for four days; read-out: Concentration in Systemic Plasma
reported_metric: concentration at 4 h (ng/mL)
Just the number please, in ng/mL, no unit attached.

Ask | Looking for the measured concentration at 4 h of CC(C)c1cc(Oc2c(Cl)cc(-n3nc(C#N)c(=O)[nH]c3=O)cc2Cl)n[nH]c1=O , can you help?
Reply | 16700
